target: Adenosine receptor A2a (Rattus norvegicus, UniProt P30543)
Sequence (P30543 whole entry): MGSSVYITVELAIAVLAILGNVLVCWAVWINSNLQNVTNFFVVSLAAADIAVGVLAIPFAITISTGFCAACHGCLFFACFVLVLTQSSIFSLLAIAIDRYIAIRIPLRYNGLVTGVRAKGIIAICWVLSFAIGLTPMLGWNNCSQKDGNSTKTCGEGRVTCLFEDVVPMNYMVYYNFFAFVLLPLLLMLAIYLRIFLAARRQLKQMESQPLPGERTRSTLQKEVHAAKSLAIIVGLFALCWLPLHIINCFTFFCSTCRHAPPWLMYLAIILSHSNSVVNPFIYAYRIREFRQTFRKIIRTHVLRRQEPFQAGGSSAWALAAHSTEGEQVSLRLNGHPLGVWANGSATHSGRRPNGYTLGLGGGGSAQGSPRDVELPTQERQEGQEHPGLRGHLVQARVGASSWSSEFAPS
pKi: −log10 of the molar value.
MEASURED_QUANTITY: pKi

# COMPOUND, RESULT
records = [
    ("CNC(=O)C1OC(n2cnc3c(NCc4cccc(I)c4)nc(Cl)nc32)C(O)C1F (stereo in doubt; 1c)", "< 5.00"),
]
